B1: Osa-1-4 twister ribozyme (parent)
chain: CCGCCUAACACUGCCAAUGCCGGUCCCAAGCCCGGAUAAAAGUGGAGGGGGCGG

variants of: B1; experiment: self-cleavage, relative activity (ratio to wild type); higher = more cleavage; co-transcriptional
Listed here: items and their measured self-cleavage.

mutation.id: C31U
self-cleavage: 0.97

mutation.id: A36U G51C
self-cleavage: 0.16

mutation.id: A41G C26G
self-cleavage: 0.09

mutation.id: A40G G49A
self-cleavage: 0.09

mutation.id: C32U G34A
self-cleavage: 0.09

mutation.id: C14A G48U
self-cleavage: 0.02

mutation.id: A38G G30A
self-cleavage: 0.05

mutation.id: C52A U37G
self-cleavage: 1.06

mutation.id: C25U C32G
self-cleavage: 0.1

mutation.id: C52G G19C
self-cleavage: 0.14

mutation.id: A46U A7G
self-cleavage: 0.07

mutation.id: A39U G13C
self-cleavage: 0.03

mutation.id: G48U G49U
self-cleavage: 0.05

mutation.id: A17G A39G
self-cleavage: 0.94

mutation.id: A46G C33G
self-cleavage: 0.03

mutation.id: G34C G42U
self-cleavage: 0.04

mutation.id: A39U C11A
self-cleavage: 0.38

mutation.id: G22U G42A
self-cleavage: 0.08

mutation.id: C27G G49C
self-cleavage: 0.03

mutation.id: C15G C52U
self-cleavage: 0.48

mutation.id: G50C U12A
self-cleavage: 0.35

mutation.id: A16G C14U
self-cleavage: 0.64

mutation.id: A10U G53U
self-cleavage: 0.03

mutation.id: U24G U43G
self-cleavage: 0.07

mutation.id: G22U G44C
self-cleavage: 0.81

mutation.id: C15A C9A
self-cleavage: 0.14

mutation.id: C27G U43A
self-cleavage: 0.08

mutation.id: A29G A38U
self-cleavage: 0.16

mutation.id: C32A G47C
self-cleavage: 0.03

mutation.id: C27A G45U
self-cleavage: 0.07

mutation.id: A38U C21G
self-cleavage: 0.06

mutation.id: A38G G53U
self-cleavage: 0.31

mutation.id: A38G U18G
self-cleavage: 0.84

mutation.id: A36C U37G
self-cleavage: 0.93

mutation.id: A29C C21A
self-cleavage: 0.04

mutation.id: U18G
self-cleavage: 0.84

mutation.id: G35U G49A
self-cleavage: 0.11

mutation.id: C11U G53C
self-cleavage: 0.07

mutation.id: A16G C31A
self-cleavage: 0.03

mutation.id: A10C G49C
self-cleavage: 0.02

mutation.id: C52G G45A
self-cleavage: 0.27

mutation.id: G47A G51C
self-cleavage: 0.05

mutation.id: A46U G13U
self-cleavage: 0.01

mutation.id: A17G G34U
self-cleavage: 0.57

mutation.id: A8U G23U
self-cleavage: 0.03

mutation.id: G35A G53U
self-cleavage: 0.22
